molecular target: αSYN fibrils (Homo sapiens, UniProt P37840); assay: [3H]PiB competition binding assay on αSYN fibrils; details: [3H]PiB competition, αSYN fibrils; mean Ki ± SEM, two data points (9a, 14a, 15a, 17a, 18a, 43, 44, MFSB three; 12a single); read-out: Ki
quantityMeasured: pKi
Keep in mind that pKi stands for -log10 of concentration in molar terms.

Simply: FC1CCN(c2ccc(C=Cc3nc4ccccc4s3)cc2)CC1 [18a] , αSYN fibrils (Homo sapiens, UniProt P37840), pKi = 7.00

Simply: Fc1ccc2nc(C=CC=Cc3ccc(N4CCCC4)cc3)sc2c1 , αSYN fibrils (Homo sapiens, UniProt P37840), pKi = 7.07

Simply: C(=Cc1nc2ccccc2s1)c1ccc(N2CCCC2)cc1 [17a] , αSYN fibrils (Homo sapiens, UniProt P37840), pKi = 7.13

Simply: C(C=Cc1nc2ccccc2s1)=Cc1ccc(N2CCCCC2)cc1 [14a] , αSYN fibrils (Homo sapiens, UniProt P37840), pKi = 7.09

Simply: C(=Cc1nc2ccccc2s1)c1ccc(N2CCOCC2)cc1 [15a] , αSYN fibrils (Homo sapiens, UniProt P37840), pKi = 7.04
